Test system: SW-620 colon
Assay: NCI tumour cell line growth inhibition, 48 h
Form field: TGI (one value per entry).

Use the examples below as a reference point.
{"molecule": "C[N+](C)(CCCCCC[N+](C)(C)CCCN1C(=O)c2cc3ccccc3cc2C1=O)CCCN1C(=O)c2cc3ccccc3cc2C1=O", "reported.metric": "TGI", "result": "> 37.5 µM"}
{"molecule": "O=C(NNC(=S)Nc1ccc(Br)cc1)c1cc(-c2ccccc2)nc2ccccc12", "reported.metric": "TGI", "result": "46.9 µM"}
{"molecule": "Cc1cc(C)n2c(-c3ccccc3)c(C)cc2n1", "reported.metric": "TGI", "result": "> 100 µM"}
{"molecule": "N#Cc1ccsc1NC(=O)COC(=O)c1cccc(S(=O)(=O)N2CCc3ccccc32)c1", "reported.metric": "TGI", "result": "> 100 µM"}

Data point: COc1cccc(CCNc2c(C#N)c3nc4ccccc4n3c3ccccc23)c1 ; TGI = > 100 µM

Lab book: TGI of Cc1cc(C)nc(SCC(=O)OC2CC(C)CCC2C(C)C)n1 (configuration not stated) noted as 52.3 µM

get_value(item= O=C(CC(C(=O)c1cccs1)c1cccs1)c1ccccc1Cl (configuration not stated) , readout=TGI) returns > 100 µM

For this molecule ( COc1cccc2c3ccccc3c3nc[nH]c3c12 ), measured TGI is > 71.2 µM

Entry Cc1[nH]n(C(=N)N)c(=O)c1CCO , TGI reported as > 100 µM

Data point: CCCC(N)C(=O)c1ccccc1 (configuration not stated) ; TGI = > 100 µM

Value of TGI reported for the molecule CCCCCCCCCCC/C=C\C[C@H](O)C/C=C1/C(=O)C=C[C@@H]1C/C=C\CCCC(=O)OC is 4.05 µM

Measured TGI, C[N+](C)(C)/N=C/c1ccc(O)c(O)c1 : > 100 µM

----------
System: HL-60(TB) leukemia
Experiment: NCI tumour cell line growth inhibition, 48 h; in the data active = GI50 below about 0.43 µM; inactive = the rest
Pick from Y for active, N for inactive when you respond.

q: Per the records of this test, what outcome belongs to CCCC[n+]1c(/C=C\c2c(OC)cc(OC)cc2OC)ccc2ccccc21 ?
a: Y

q: // param item: NCCCCCCCCCCCn1c2c(c3ccccc3c1=O)C(=O)c1ccccc1-2 ; yields the recorded call
a: N

----------
Tested on: OVCAR-4 ovarian
Assay: NCI tumour cell line growth inhibition, 48 h
reported.metric: TGI

Worked set:
{"molecule": "CC1=C(C(=O)Nc2ccc3[nH]ncc3c2)C(c2ccc(Cl)c(Cl)c2)CC(=O)N1 (stereo not given)", "experimental.target": "OVCAR-4 ovarian", "TGI": "> 25 µM"}
{"molecule": "N.N.O=P([O-])([O-])CN(CCN(CP(=O)([O-])[O-])CP(=O)([O-])[O-])CP(=O)([O-])[O-].[Pt+2]", "experimental.target": "OVCAR-4 ovarian", "TGI": "> 100 µM"}
{"molecule": "O=C(CC1(O)C(=O)Nc2ccccc21)c1ccc(F)cc1 (stereo not given)", "experimental.target": "OVCAR-4 ovarian", "TGI": "> 100 µM"}
{"molecule": "CCOC(=O)C1C(c2ccc(O)c(OC)c2)c2c([nH][nH]c2=O)CC1(C)O (stereo not given)", "experimental.target": "OVCAR-4 ovarian", "TGI": "> 100 µM"}

// TGI lookup, molecule = N#CCCN(CCC#N)c1ccc(C(N=Nc2ccccc2)=Nc2ccc(Cl)cc2)cc1 , result: > 100 µM
